All values here come from the supplement of paper PMC5998384.

- Tested on: HeLa Kyoto;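 also: HeLa Kyoto cells synchronized by double thymidine or nocodazole block, proteins quantified by TMT10plex mass spectrometry, three independent biological replicates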
- assay overview: melting temperature (median over replicates), in situ; higher = more thermally stable
- measurement conditions: cell cycle stage: mitosis
Would you kindly list melting temperature for each of these sequences?
Your answer is read as °C, so omit the unit and give the number.

So, MAGIPGLLFLLFFLLCAVGQVSPYSAPWKPTWPAYRLPVVLPQSTLNLAKPDFGAEAKLEVSSSCGPQCHKGTPLPTYEEAKQYLSYETLYANGSRTETQVGIYILSSSGDGAQHRDSGSSGKSRRKRQIYGYDSRFSIFGKDFLLNYPFSTSVKLSTGCTGTLVAEKHVLTAAHCIHDGKTYVKGTQKLRVGFLKPKFKDGGRGANDSTSAMPEQMKFQWIRVKRTHVPKGWIKGNANDIGMDYDYALLELKKPHKRKFMKIGVSPPAKQLPGGRIHFSGYDNDRPGNLVYRFCDVKDETYDLLYQQCDAQPGASGSGVYVRMWKRQQQKWERKIIGIFSGHQWVDMNGSPQDFNVAVRITPLKYAQICYWIKGNYLDCREG [PRSS23] ? Its melting temperature was 53.6

Reported melting temperature of MQPASAKWYDRRDYVFIEFCVEDSKDVNVNFEKSKLTFSCLGGSDNFKHLNEIDLFHCIDPNDSKHKRTDRSILCCLRKGESGQSWPRLTKERAKLNWLSVDFNNWKDWEDDSDEDMSNFDRFSEMMNNMGGDEDVDLPEVDGADDDSQDSDDEKMPDLE [PTGES3] : 49.9

melting temperature reported for this sequence MADGKAGDEKPEKSQRAGAAGGPEEEAEKPVKTKTVSSSNGGESSSRSAEKRSAEEEAADLPTKPTKISKFGFAIGSQTTKKASAISIKLGSSKPKETVPTLAPKTLSVAAAFNEDEDSEPEEMPPEAKMRMKNIGRDTPTSAGPNSFNKGKHGFSDNQKLWERNIKSHLGNVHDQDN [PCNP] : 53.8

Measured melting temperature, MAELTALESLIEMGFPRGRAEKALALTGNQGIEAAMDWLMEHEDDPDVDEPLETPLGHILGREPTSSEQGGLEGSGSAAGEGKPALSEEERQEQTKRMLELVAQKQREREEREEREALERERQRRRQGQELSAARQRLQEDEMRRAAEERRREKAEELAARQRVREKIERDKAERAKKYGGSVGSQPPPVAPEPGPVPSSPSQEPPTKREYDQCRIQVRLPDGTSLTQTFRAREQLAAVRLYVELHRGEELGGGQDPVQLLSGFPRRAFSEADMERPLQELGLVPSAVLIVAKKCPS [UBXN1] : 51.3

// sample MAEPFLSEYQHQPQTSNCTGAAAVQEELNPERPPGAEERVPEEDSRWQSRAFPQLGGRPGPEGEGSLESQPPPLQTQACPESSCLREGEKGQNGDDSSAGGDFPPPAEVEPTPEAELLAQPCHDSEASKLGAPAAGGEEEWGQQQRQLGKKKHRRRPSKKKRHWKPYYKLTWEEKKKFDEKQSLRASRIRAEMFAKGQPVAPYNTTQFLMDDHDQEEPDLKTGLYSKRAAAKSDDTSDDDFMEEGGEEDGGSDGMGGDGSEFLQRDFSETYERYHTESLQNMSKQELIKEYLELEKCLSRMEDENNRLRLESKRLGGDDARVRELELELDRLRAENLQLLTENELHRQQERAPLSKFGD [HEXIM1] , its melting temperature was 55.5
